assay: Anti-osteoclastogensis activity in C57BL/6 mouse BMMC cells assessed as inhibition of RANKL/M-CSF-induced TRAP activity at 1 uM measured after 3 days by colorimetric assay (reference value: 0%); assay type: functional; conditions: C57BL/6, BMMC, 72 h, time 3 day
If the reported inhibition at 1 µM equals or exceeds 40%, assign TRUE. If not, assign FALSE.

Query: Is it the case that CCOC(=O)Nc1cc(-c2ccncc2)cc2c(C(C)=O)c(C)[nH]c12 has inhibition at 1 µM reaching or exceeding 40%?
Reply: TRUE

Query: Hi team, for CC(=O)c1c(C)[nH]c2c(NC3CCNCC3)cc(-c3cccnc3)cc12 , is the recorded inhibition at 1 µM at or above 40%?
Reply: TRUE

Query: Reported inhibition at 1 µM at or above 40%? CCOC(=O)Nc1cc(-c2ccccc2)cc2c(C(C)=O)c(C)[nH]c12
Reply: FALSE

Query: Confirm if inhibition at 1 µM reported for the compound CC(=O)c1c(C)[nH]c2c(N(C)C)cc(-c3cccnc3)cc12 is 40% or above.
Reply: FALSE

Query: Given the entry COc1ccccc1S(=O)(=O)Nc1cc(-c2cccnc2)cc2c(C(C)=O)c(C)[nH]c12 , answer whether its inhibition at 1 µM meets or surpasses 40%.
Reply: TRUE
